Test system: mice
Assay: Test A: acetic acid mouse writhing test (analgesic effects)
Type: in vivo, male CD-1 mice
Conditions: Mus musculus, sc, subcutaneous, 15 min before acetic acid, dose reducing writhes by 50%, read-out: ED50 (Test A, acetic acid mouse writhing test)
Structures can show the parent of a compound that is named as a salt.
readout: ED50 (mg/kg)
Could you give me the number in mg/kg? Just the number is fine.

# annotated cases, reported ED50 shown
[[record]]
compound = "CO[C@@]12CCC(=O)C[C@@]13CCN(CC1CCCO1)[C@@H]2Cc1ccc(O)cc13 (some centres unmarked) [TR-5340]"
meas_value = 0.03

[[record]]
compound = "COc1ccc2c(c1)[C@]13CCN(CC4CC4)[C@H](C2)[C@]1(OC)CCC(=O)C3 [TR-5305]"
meas_value = 0.98

[[record]]
compound = "CO[C@@]12[C@@H](C)CC(=O)C[C@@]13CCN(CC1CC1)[C@@H]2Cc1ccc(O)cc13.Cl [TR-5210]"
meas_value = 30

[[record]]
compound = "CO[C@@]12[C@H](C)CC(=O)C[C@@]13CCN(CC1CCC1)[C@@H]2Cc1ccc(O)cc13 [TR-5249]"
meas_value = 0.14

[[record]]
compound = "COc1ccc2c(c1)[C@]13CCN(CC4CCCO4)[C@H](C2)[C@]1(OC)CCC(=O)C3.Cl (some centres unmarked) [TR-5326]"
meas_value = 0.16

[[record]]
compound = "CO[C@@]12[C@H](C)CC(=O)C[C@@]13CCN(CC=C(C)C)[C@@H]2Cc1ccc(O)cc13.Cl [TR-5310]"
meas_value = 0.18


Now take the following compound into account.
Return the recorded ED50 value; entry: CO[C@@]12CCC(=O)C[C@@]13CCN(CC1CCC1)[C@@H]2Cc1ccc(O)cc13 [TR-5306, Hydrochloride]
0.007

====

Experiment: Overall agonist/antagonist classification from Table I (Tests A and B)
Type: in vivo, mice (Test A); rats (Test B)
Conditions: from ED50 and AD50 values of Table I
Where a name gives a salt, the structure may show the parent alone.
readout: agonist/antagonist profile

[[record]]
molecule = "CO[C@@]12CCC(=O)C[C@@]13CCN(CC1CCCO1)[C@@H]2Cc1ccc(O)cc13 (stereo partly shown)"
readout = "agonist/antagonist profile"
meas_value = "pure analgesics"

[[record]]
molecule = "COc1ccc2c(c1)[C@]13CCN(CC4CCCO4)[C@H](C2)[C@]1(OC)[C@H](C)CC(=O)C3.Cl (stereo partly shown)"
readout = "agonist/antagonist profile"
meas_value = "pure analgesics"

[[record]]
molecule = "CO[C@@]12CCC(=O)C[C@@]13CCN(CC1CCC1)[C@@H]2Cc1ccc(O)cc13 [TR-5306, Hydrochloride]"
readout = "agonist/antagonist profile"
meas_value = "pure analgesics"


====

Assay: Overall agonist/antagonist classification from Table I (Tests A and B)
Assay type: in vivo, mice (Test A); rats (Test B)
Conditions: from ED50 and AD50 values of Table I
Protocol: The analgesic effects of test compounds were determined in mice by use of the acetic acid writhing test described by B. J. R. Whittle, Brit. J. Pharmacol., 22:296 (1964). […] The number of writhes in a 20 minute interval beginning 5 minutes after the acetic acid injection were determined and compared with the number of writes in control groups which had received only acetic acid. […]
Where a name gives a salt, the structure may show the parent alone.
readout: agonist/antagonist profile

[[record]]
compound = "CO[C@@]12[C@H](C)CC(=O)C[C@@]13CCN(CC=C(C)C)[C@@H]2Cc1ccc(O)cc13.Cl [TR-5310]"
readout = "agonist/antagonist profile"
meas_value = "pure analgesics"

[[record]]
compound = "COc1ccc2c(c1)[C@]13CCN(CC4CCCO4)[C@H](C2)[C@]1(OC)CCC(=O)C3.Cl (some centres unmarked) [TR-5326]"
readout = "agonist/antagonist profile"
meas_value = "pure analgesics"

[[record]]
compound = "COc1ccc2c(c1)[C@]13CCN(CC4CCC4)[C@H](C2)[C@]1(OC)CCC(=O)C3 [TR-5296, Hydrochloride]"
readout = "agonist/antagonist profile"
meas_value = "pure analgesics"

